// data source = PubChem BioAssay (NCI)

# System: SN12C renal
# measurement notes: NCI tumour cell line growth inhibition, 48 h
result type: GI50

Recorded GI50 (compound "C=C(C)[C@@H]1CC[C@]2(CN)CC[C@]3(C)[C@H](CC[C@@H]4[C@@]5(C)CCCNC(C)(C)[C@@H]5CC[C@]43C)[C@@H]12" ): 1750 nM

Briefly, GI50 measured for "O=C(Nc1ncc(Cc2cccc(C(F)(F)F)c2)s1)c1ccc2c(c1)OCCO2" : 592 nM

GI50 reading for "CN(C)CCN1CCC(Cc2ccccc2)CC1" : > 80000 nM

Sample "COC(=O)C1=CN(CC2=CC(=O)C(C)=CC2=O)C=C(C(=O)OC)C1c1ccccc1OC" ; GI50 observed: 14800 nM

Memo: "Cc1cccc(NC2=C(Cl)C(=O)c3nc(C)ccc3C2=O)c1" , reported GI50: 1170 nM

Given item C=CC1(C)CC(=O)C2(O)C(C)(O1)C(OC(C)=O)C(O)C1C(C)(C)CCC(O)C12C (stereo not given) , the value recorded as its GI50 is > 49000 nM

GI50 reading for "CCOC(=O)Nc1c(C)nc2ccccn12" : > 100000 nM

Entry "C[C@H](CCOc1cccc(CC(=O)O)c1)N(Cc1cccc(C(F)(F)F)c1Cl)CC(c1ccccc1)c1ccccc1" ; GI50 = 5330 nM

Record "COC(=O)c1c2c(c(C)[n+]([O-])c1C)C(=O)C(NCc1ccc(Br)cc1)=CC2=O" , field GI50: 1660 nM

Form: compound = "O=c1cccc(C#CC#C[C@@H]2O[C@H]2CO)o1" ; GI50 = 465 nM

* * *

Please go through the items and note down their log10 TGI.
# Tested on: SNB-75 CNS
# measurement notes: NCI tumour cell line growth inhibition, 48 h
Where a SMILES comes first, the peptide text is derived from it. The star is where a group is joined. Palmitoyl = CCCCCCCCCCCCCCCC(=O)*
Recorded TGI (log10, µM)

Query CCCCCCCCCCCCCCCC(=O)N1CCCC1C(=O)NCC(=O)NC(Cc1ccccc1)C(=O)N1CCCC1C(=O)NC(CO)C(=O)NC(Cc1ccc(O)cc1)C(=O)NC(CCCCN)C(=O)NC(CC(C)C)C(=O)NC(CCCN=C(N)N)C(=O)N1CCCC1C(=O)NCC(N)=O (centres undefined) (Palmitoyl-PGFPSYKLRPG-NH2; configuration not given here) yields log10 TGI of 1.69

Value of measured log10 TGI for the entry "O=c1cccc(C#CC#C[C@@H]2O[C@H]2CO)o1" : 0.61

Form field log10 TGI, entry "CCCCOCCOC1=C(Cl)C(=O)c2c(O)ccc(O)c2C1=O" : 0.30

For "CC1=C(C(=O)Nc2ccccc2)C(c2ccc(Cl)c(Cl)c2)C(C(=O)Nc2ccccc2)=C(C)N1" the molecule record lists log10 TGI as 1.54

Reported log10 TGI ( "O=C(OCC(Cl)(Cl)Cl)N1CC[C@H](C2CCCCC2)C1" ) = 1.56

Reported log10 TGI for "CCc1c(O)c(O)c(C(C)=O)c2c(O)c(-c3c(C)cc4c(CC)c(O)c(O)c(C(C)=O)c4c3O)c(C)cc12" was 1.49

log10 TGI reading for "COc1c2occc2c(N)c2ccc(=O)oc12" : 1.84

So, CCOC(=O)/C=C1/C(CCCOCc2ccccc2)C2CCCC23CC2(CCN13)OCCO2 (centres undefined) ? Its log10 TGI was 0.97

For COc1cccc2c1OC(c1cccc3ccccc13)C([N+](=O)[O-])=C2 (centres undefined) the molecule record lists log10 TGI as 0.42

The molecule listed as "C[C@H](CCOc1cccc(CC(=O)O)c1)N(Cc1cccc(C(F)(F)F)c1Cl)CC(c1ccccc1)c1ccccc1" has a reported log10 TGI of 1.34

Lab book: log10 TGI of "O=C(Nc1ncc(Cc2cccc(C(F)(F)F)c2)s1)c1ccc2c(c1)OCCO2" noted as 0.86

The molecule COc1cc(/C=C2\CCCCC3=C2N=C2SC(C)=CN2C3c2cc(OC)c(OC)c(OC)c2)cc(OC)c1OC (centres undefined) showed log10 TGI equal to 0.96

* * *

# Tested on: SN12C renal
# measurement notes: NCI tumour cell line growth inhibition, 48 h
result type: TGI

According to the records, this compound "COc1cc(OC)c(OC)cc1/C=N/NC(=O)N/N=C/c1cc(OC)c(OC)cc1OC" displays TGI of > 100 µM

# TGI (compound: COC(=O)c1ccccc1CC1Cc2cccc(C)c2C1=O (centres undefined) ) is > 100 µM

For record "O=C(c1ccccc1)c1ccc2c(c1)NC(=O)c1ccccc1SSc1ccccc1C(=O)N2" the listed TGI is > 100 µM

Given item "CCOc1ccc(OCC(=O)O)c2c1CCCC2=O" , the value recorded as its TGI is > 100 µM

So, "CSc1csc(-c2ccc(-c3ccc(-c4cc(SC)cs4)s3)s2)c1" ? Its TGI was > 100 µM

Form: compound = COC(=O)/C=C/c1cc(OC(C)=O)c2c(c1)C(C(=O)OC)C(c1ccc(OC(C)=O)c(OC(C)=O)c1)O2 (centres undefined) ; TGI = > 42.5 µM

Documented TGI of "CCn1cc(-c2ccnc3[nH]c(-c4cccc(CN(C)C)c4)cc23)c(-c2ccc(NC(=O)N(C)C)cc2)n1" : > 57.8 µM

// field: TGI; key: "Clc1sc(Cl)c2c1[C@@H](Cl)C[C@@H]2Br" ; value = > 100 µM

Quick note, TGI for "C[N+](C)(C)CC(=O)N/N=C(/Cc1cc(=O)oc2cc(O)ccc12)C(=O)Nc1ccc(Cl)cc1" landed at > 100 µM

Given item "CCSc1nc(N=Cc2ccccc2O)c2cn[nH]c2n1" , the value recorded as its TGI is 95.1 µM

Reported TGI for "COc1c2occc2c(N)c2ccc(=O)oc12" was > 100 µM

Just so you know, measured TGI for Cc1cc(OP2(=O)NCc3ncccc3O2)ccc1Cl (centres undefined) came out at > 100 µM

The recorded TGI for entry "CCOC(=O)c1c(C)c2c(n1Cc1ccccc1)CSCC2=O" equals > 100 µM

// TGI value for c1ccc(C2=NOC(c3ccccc3)N2C23CC4CC(CC(C4)C2)C3)cc1 (centres undefined) : > 10 µM

Reported TGI ( "O=C(Nc1ncc(Cc2cccc(C(F)(F)F)c2)s1)c1ccc2c(c1)OCCO2" ) = > 100 µM

Kindly note the recorded TGI for "Cn1ncc2c(NCc3ccccc3)ncnc21" , which is > 100 µM

Measured TGI of "COc1ccc(-c2c(C#N)c(N3CCOCC3)nc3[nH]c(=S)[nH]c(=S)c23)cc1OC" : 91.3 µM

// TGI value for "CCCCCCCCSC1=C(Cl)C(=O)C(OC)=C(OC)C1=O" : 18.4 µM

// TGI value for "O[C@H]1[C@H](O)[C@@H](O)CN2CC[C@H](O)[C@H]12" : > 100 µM

The compound CC1OC(O[C@H]2C3C=CO[C@@H](OC4OC(CO)C(O)C(O)C4O)C3[C@@]3(COC(=O)/C=C/c4ccccc4)O[C@@H]23)C(O)C(O)C1O (some centres undefined) showed TGI equal to > 100 µM

// recorded TGI for "CCCN(CCC)c1c([N+](=O)[O-])cc(C(=O)N(CC)CC)cc1[N+](=O)[O-]" : > 100 µM

Quick note, TGI for "C=C(CN(C)Cc1ccccc1)c1ccc(NC(=O)c2ccc(C(=C)CN(C)Cc3ccccc3)cc2)cc1" landed at > 100 µM

Data point: "CCC(C)(C)n1c(C)nc2c1C(=O)c1ccccc1C2=O" ; TGI = > 100 µM

Documented TGI of O=C1NC(O)CCN1C1OC(CO)C(O)C1O (centres undefined) : > 250 µM

Reported TGI of "CNCCCNc1ccnc2cc(Cl)ccc12" : > 100 µM

# TGI (compound: "Cc1cc(C)nc(NS(=O)(=O)c2ccc(Nc3c4ccccc4nc4c(C(=O)N5CCN(CCO)CC5)cccc34)cc2)n1" ) is > 100 µM

compound "O=C(CN1C(=O)CC(c2ccccc2)(c2ccccc2)C1=O)N1CCN(CCO)CC1" , TGI observed: > 100 µM

Briefly, TGI measured for "CC(C)(C)c1ccc2c(c1)C#Cc1cc3c(cc1OCCCO2)C#Cc1cc(C(C)(C)C)ccc1OCCCO3" : > 100 µM

Field TGI (entry "Cc1c2c(c(C)n1-c1ccccc1)C(=O)N(CCN1CCN(c3cccc(C(F)(F)F)c3)CC1)C2=O" ) reads > 100 µM

// recorded TGI for "O=C(CCSC1=NCCCN1)c1ccc(F)cc1" : 43.6 µM

// TGI lookup, compound = "CNc1nc(N)nc(Nc2ccc(I)cc2)c1N=O" , result: > 100 µM

Lab note: measured TGI of "Nc1c(C(=O)Nc2ccccn2)sc2nc3c(cc12)C(=O)CCC3" was > 100 µM

# TGI (compound: "COc1ccc(C(=O)NCCN(C)C)c2nc3ccccc3cc12" ) is 3.28 µM

TGI measured on "O=C1C=C(c2c(O)ccc3ccccc23)c2cc(O)ccc2C1=O" = 32.4 µM
